- System: OVCAR-4 ovarian
- experimental.protocol: NCI-60 one-dose screen, 48 h (100 = growth as untreated, 0 = no growth, -100 = all killed)
- cond: 10 µM unless noted
The panel holds about 83,000 compounds, 20% with a hit somewhere; the sample as a whole holds those more often.
Please provide measured growth for the entries that follow.
Answers are plain numbers, in %.

Solved cases (2 shown):
1) C[C@H]1[C@H]2C3=CC[C@@H]4[C@@]5(C)C/C(=C/c6ccncc6)C(=O)C(C)(C)[C@@H]5CC[C@@]4(C)[C@]3(C)CC[C@@]2(C(=O)N2CCN(C)CC2)CC[C@@H]1C ... 73.6
2) COc1ccc(-c2cc(-c3cc(OC)ccc3O)[nH]c(=O)c2C#N)cc1 ... 80.5

List growth for every entry below, keeping the order given.
1. OCCCCc1nccc2c1[nH]c1ccccc12
2. CCOC(=O)c1sc2ccc(NCc3nc[nH]c3C)cc2c1NC(=O)c1cc(OC)c(OC)c(OC)c1

1. 89.6
2. 74

====

- System: MCF7 breast
- experimental.protocol: NCI-60 one-dose screen, 48 h (100 = growth as untreated, 0 = no growth, -100 = all killed)
- cond: 10 µM unless noted
- Procedure: Growth inhibition of the MCF7 human tumor cell line is measured as a screen for anti-cancer activity. Cells are grown in 96 well plates and exposed to the test compound for 48 hours. Compounds are tested at a single concentration, which is 10^-5 M for most compounds. The reported endpoint is percent growth (GI% or GIPRCNT), where numbers from 0 - 100% represent growth inhibition, and numbers from -100% - 0 represent cell death. For example, a value of 40 represents 60% growth inhibition. […]
Compounds without any hit were thinned out: in the full panel of roughly 83,000, 20% have a hit.
experimental.endpoint: growth (%)
Give bare numbers, in %.

Solved cases (4 shown):
1. C=C1C(=O)O[C@H]2[C@H]1CC/C(COC(=O)/C=C\C(=O)NCc1ccc(Cn3c(=O)sn(-c4ccc(OC)cc4)c3=O)cc1)=C\CC[C@@]1(C)O[C@@H]21 ... -51.4
2. OC(COc1cccc2ccccc12)CN1CCN(c2ccccc2)CC1 (stereo not drawn) ... 96.4
3. CN(C)c1ccc2cc(-c3ccc(Cl)c(Cl)c3)c(N)nc2c1 ... 24.3
4. CCOC(=O)c1nnn(C(Cc2ccccc2Cl)C(=O)OCC)c1C (stereo not drawn) ... 104

List growth for every entry below, keeping the order given.
1. C/C(Cc1ccc(Cl)cc1)=C(/c1ccc(Cl)cc1)c1ccc(OCCN(C)C)cc1
2. CC(C)(C)CC(C)(C)Nc1c(-c2ccc(-c3ccccc3)cc2)nc2cnccn12
3. N=C(N)c1ccc(-c2ccc(-c3ccc(Cl)c(Cl)c3)o2)cc1
4. CN(C)CN1CCN(c2ccc3nc(-c4ccc5nc(-c6ccc(C(F)(F)F)cc6)[nH]c5c4)[nH]c3c2)CC1
5. Cc1nc(Nc2ccc(NC(=S)Nc3ccccc3)cc2)c2ccccc2n1
6. C=CCO[C@H]1CO[C@H]2[C@@H]1OC[C@@H]2Oc1ccc(Nc2ccnc(Nc3ccc(O[C@H]4CO[C@H]5[C@@H]4OC[C@@H]5OCC=C)c(Cl)c3)n2)cc1Cl

[11, 82.3, -68.9, 9.58, 77.4, -71.1]

====

- System: NCI-H322M lung
- experimental.protocol: NCI-60 one-dose screen, 48 h (100 = growth as untreated, 0 = no growth, -100 = all killed)
- cond: 10 µM unless noted
The panel holds about 83,000 compounds, 20% with a hit somewhere; the sample as a whole holds those more often.
Please provide measured growth for the entries that follow.
Give bare numbers, in %.

List growth for every entry below, keeping the order given.
1. COc1ccc(C2CC(c3cnccn3)=NN2)cc1OC (stereo not drawn)
2. N#Cc1cnn2c(-c3ccc(Cl)cc3)nc(NC3CC3)nc12
3. Cc1ccc(C)c2c1C(=O)OC2=O

1. 90.9
2. 87.5
3. 89.3

====

- System: HOP-92 NSCLC
- experimental.protocol: NCI-60 one-dose screen, 48 h (100 = growth as untreated, 0 = no growth, -100 = all killed)
- cond: 10 µM unless noted
Compounds without any hit were thinned out: in the full panel of roughly 83,000, 20% have a hit.
Please provide measured growth for the entries that follow.
One number for each entry, in %.

Solved cases (2 shown):
1) CC(=O)Nc1cccc(C2=CC(c3ccc(C)cc3)n3ncnc3N2)c1 (stereo not drawn) ... 77.7
2) Fc1ccc(Nc2nc(Nc3ccc(-c4nc5ccccc5[nH]4)cc3)c3cn[nH]c3n2)cc1 ... 79

Item O=C1CC(c2ccc3c(c2)OCO3)Nc2cc3c(cc21)OCO3 (stereo not drawn) has what recorded growth?
29.2

====

- Tested on: SK-OV-3 ovarian
- experimental.protocol: NCI-60 one-dose screen, 48 h
- cond: 10 µM unless noted
This is part of a sample that, as a whole, favours compounds with a hit. Of some 83,000 tested, about 20% had one in any assay. The source made the active and inactive calls. Rule for the calls: active = growth percent below 10; inactive = the rest.
A correct response names exactly one class from YES = active, NO = inactive

1. COc1ccc(/C=C2\COc3ccc(O)c(O)c3C2=O)c(OC)c1 ... NO
2. COc1ccc(-c2nc3sccn3c2/C=C/C(=O)c2c[nH]c3ccccc23)cc1 ... NO
3. CC1=CC(=O)C(C(C)C)=CC1=Nc1cc(Br)c(O)c(Br)c1 ... NO
4. COc1ccc(-c2cc(-c3cc(OC)ccc3OC)[nH]c(=O)c2C#N)cc1 ... NO
5. C=C1c2c(C)nn(-c3ccc(NC(C)=O)cc3)c2N(C)C23CC1C1(C)c4c(C)nn(-c5ccc(NC(C)=O)cc5)c4N(C)C(C)(CC12)C3 (stereo unspecified) ... NO
6. COc1cc2nc(Nc3ccc(F)cc3)nc(N)c2cc1OC ... NO

Any idea what this test logged for "O=[N+]([O-])c1ccc2[nH]cc(-c3c4ccsc4cc4[nH]c5ccc([N+](=O)[O-])cc5c34)c2c1" ?
NO

Any idea what this test logged for "CCn1nc(C#Cc2c(C)ccc3c(Nc4ccc(Cl)cc4)nccc23)c2c(N)ncnc21" ?
YES

Any idea what this test logged for "CC[C@]1(O)C[C@H]2CN(CCc3c([nH]c4ccccc34)[C@@](C(=O)OC)(c3cc4c(cc3OC)N(C=O)[C@H]3[C@@](O)(C(=O)OC)[C@H](OC(C)=O)[C@]5(CC)C=CCN6CC[C@]43[C@@H]65)C2)C1" ?
YES

Any idea what this test logged for "Cc1c2c(cn1Cc1ccccc1)CCc1cn(C)nc1-2" ?
NO

Any idea what this test logged for "CCOC(=O)c1sc(-c2ccc(OS(=O)(=O)c3ccc(C(C)(C)C)cc3)c(C=O)c2)nc1C" ?
NO

Any idea what this test logged for "Cc1cc(NS(=O)(=O)c2ccccc2)c(OS(=O)(=O)c2ccccc2)cc1C" ?
NO

Any idea what this test logged for "O[C@H]1CO[C@H]2[C@@H]1OC[C@@H]2Oc1ccc(Nc2nc(Nc3ccc(F)c(Cl)c3)ncc2F)cc1Cl" ?
NO

====

Please provide measured growth for the entries that follow.
- Tested on: SNB-75 CNS
- experimental.protocol: NCI-60 one-dose screen, 48 h (100 = growth as untreated, 0 = no growth, -100 = all killed)
- cond: 10 µM unless noted
- Method: Growth inhibition of the SNB-75 human tumor cell line is measured as a screen for anti-cancer activity. Cells are grown in 96 well plates and exposed to the test compound for 48 hours. Compounds are tested at a single concentration, which is 10^-5 M for most compounds. The reported endpoint is percent growth (GI% or GIPRCNT), where numbers from 0 - 100% represent growth inhibition, and numbers from -100% - 0 represent cell death. For example, a value of 40 represents 60% growth inhibition. […]
About 83,000 compounds went through this panel and 20% of them were active in at least one assay; those are over-represented in the sample as a whole.
Give bare numbers, in %.

Solved cases (6 shown):
1. CNCCNc1nc2ccccc2c2c(=O)c3cc(F)ccc3oc12 ... 56.8
2. O=C(NCCOCCOCCOCCNC(=O)c1cc2c(o1)C(=O)c1ccccc1C2=O)NC12CC3CC(CC(C3)C1)C2 ... -99.6
3. O=[N+]([O-])c1cccc(/C=C/c2ccccn2)c1 ... 58.3
4. CC1=CC(=O)C(C(C)C)=CC1=Nc1cc(Br)c(O)c(Br)c1 ... 27.1
5. CCN(CCO)CC(=O)c1cc(Cl)cc(Cl)c1Cl ... 95.3
6. C[C@H]1[C@H]2C3=CC[C@@H]4[C@@]5(C)C/C(=C/c6ccncc6)C(=O)C(C)(C)[C@@H]5CC[C@@]4(C)[C@]3(C)CC[C@@]2(C(=O)N2CCN(C)CC2)CC[C@@H]1C ... 76.3

List growth for every entry below, keeping the order given.
1. O=[N+]([O-])c1ccc(-c2cc3c(Nc4ccc(OCc5cccc(Cl)c5)c(Cl)c4)ncnc3s2)cc1
2. O=C(CC12CC3CC(CC(C3)C1)C2)NCCOCCOCCOCCNC(=O)c1cc2c(o1)C(=O)c1ccccc1C2=O
3. C=C1C(=O)O[C@H]2[C@H]1CC/C(COC(=O)NCc1ccc(Cn3c(=O)sn(CCCCl)c3=O)cc1)=C\CC[C@@]1(C)O[C@@H]21
4. Cc1cc(-c2ccccc2)cc(SC#N)[n+]1[O-]
5. CCOc1ccc2nc(-c3cccc(OCC(=O)NC(C)C)c3)nc(Nc3ccc(-c4cn[nH]c4)cc3)c2c1
6. COc1ccc(/C=C(\C#N)n2nnc3cc(F)c(F)cc32)c(OC)c1OC
7. NC(=S)c1csc(CCNC(=O)c2ccccc2)n1

1: 69.8; 2: -98.9; 3: 70.2; 4: 78.5; 5: -62; 6: 82; 7: 97.7

List growth for every entry below, keeping the order given.
1. OC(COc1cccc2ccccc12)CN1CCN(c2ccccc2)CC1 (stereo not given)
2. COc1ccc(C2=NC(=O)NC2c2ccc(OC)cc2)cc1 (stereo not given)

[81.8, 46.7]
